assay: Metabolic stability with human liver microsomes; type: in vitro ADME; conditions: human
READOUT_TYPE: half-life (min)
Give just the number in min; leave the unit off.

These solved cases illustrate the format of a correct answer.
INSERT INTO assay_data (molecule, units_symbol, test_value) VALUES
  ('O=C(c1ccc(F)cc1)C1CCN(CCn2c(=O)[nH]c3ccccc3c2=O)CC1 [ketanserin]', 'min', 31.5),
  ('CCCC1O[C@@H]2C[C@H]3[C@@H]4C[C@H](F)C5=CC(=O)C=C[C@]5(C)[C@@]4(F)[C@@H](O)C[C@]3(C)[C@]2(C(=O)COCNC(=O)CN)O1 (stereo partly drawn) [PIII-1]', 'min', 7.8);

Read the next record carefully.
Please fill in: half-life reported for CCCC1O[C@@H]2C[C@H]3[C@@H]4C[C@H](F)C5=CC(=O)C=C[C@]5(C)[C@@]4(F)[C@@H](O)C[C@]3(C)[C@]2(C(=O)CO)O1 (stereo partly drawn) [III] = 2.14

These data points were gathered from patent US20230119539A1.
